Biological target: SOS1 catalytic domain (SOS-CAT) with HRAS (Homo sapiens, UniProt Q07889)
Construct: SOS1 catalytic domain 564-1049 in pET15 plus full-length wild-type HRAS in pHTP1; bacterial expression, Ni-NTA purified; with GTPase HRas
Sequence (Q07889 564-1049): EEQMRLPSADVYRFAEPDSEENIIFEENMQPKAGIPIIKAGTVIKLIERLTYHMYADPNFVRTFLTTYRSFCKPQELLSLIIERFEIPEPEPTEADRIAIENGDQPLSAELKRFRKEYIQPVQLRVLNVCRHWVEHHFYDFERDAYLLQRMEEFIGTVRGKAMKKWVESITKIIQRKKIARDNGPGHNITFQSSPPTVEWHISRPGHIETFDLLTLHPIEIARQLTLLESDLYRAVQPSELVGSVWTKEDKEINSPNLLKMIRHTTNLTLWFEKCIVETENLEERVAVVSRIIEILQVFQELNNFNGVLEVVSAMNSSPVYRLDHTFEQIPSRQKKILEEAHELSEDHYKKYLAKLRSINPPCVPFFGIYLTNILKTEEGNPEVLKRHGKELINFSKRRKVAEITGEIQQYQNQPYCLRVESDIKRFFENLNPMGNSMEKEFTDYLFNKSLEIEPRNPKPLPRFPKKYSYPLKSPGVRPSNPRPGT
Sequence (P01112 whole entry partner, the tested form may be a part): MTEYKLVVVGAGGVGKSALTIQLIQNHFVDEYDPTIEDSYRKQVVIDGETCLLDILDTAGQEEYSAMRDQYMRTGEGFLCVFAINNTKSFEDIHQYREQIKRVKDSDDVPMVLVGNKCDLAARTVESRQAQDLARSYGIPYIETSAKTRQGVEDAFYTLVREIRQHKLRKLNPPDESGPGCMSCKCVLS
Assay: fluorescent BODIPY-FL-GDP nucleotide exchange (GEF) assay, initial rate
Assay type: biochemical
Details: GTP, BODIPY-FL-GDP-loaded RAS, 1 mM MgCl2, 0.01% NP40, 1 mM DTT, pH 7.5; initial 200 s; used as weak/negative control; read-out: IC50
measured_parameter: pIC50
pIC50 here is simply -log10 of the concentration when that concentration is written in mol/L.

# assay system SOS1 catalytic domain (SOS-CAT) with HRAS (Homo sapiens, UniProt Q07889): give pIC50 of COc1cccc2c1C(=O)c1c(O)c3c(c(O)c1C2=O)C[C@@](O)(C(=O)CO)C[C@@H]3O[C@H]1C[C@H](N)[C@H](O)[C@H](C)O1 [Doxorubicin] 4.15
